# condition_notes: in acetonitrile, 283.15 K
quantity_name: solubility (mole fraction)
Numbers only.

Q: Query (compound): O=C(O)c1cc([N+](=O)[O-])ccc1O ; field requested: solubility (mole fraction)
Result: 0.0366

----------
# condition_notes: in DMF, 298.15 K
quantity_name: solubility (mole fraction)

Q: // solubility (mole fraction) lookup, key: O=C(O)c1cc([N+](=O)[O-])ccc1O
Result: 0.111

----------
# condition_notes: in ethanol, 313.15 K
quantity_name: solubility (mole fraction)
Answers are plain numbers.

Q: Suppose we examine the compound O=C(O)c1cc([N+](=O)[O-])ccc1O ; what solubility (mole fraction) value has been reported?
Result: 0.0605

----------
# condition_notes: in ethylene glycol, 278.15 K
quantity_name: solubility (mole fraction)
Give bare numbers.

Q: Query (compound): O=C(O)c1cc([N+](=O)[O-])ccc1O ; field requested: solubility (mole fraction)
Result: 0.00911

----------
# condition_notes: in methanol, 283.15 K
quantity_name: solubility (mole fraction)
Numbers only.

Q: Using the record for O=C(O)c1cc([N+](=O)[O-])ccc1O , report its solubility (mole fraction).
Result: 0.0345

----------
# condition_notes: in methanol, 298.15 K
quantity_name: solubility (mole fraction)

Q: Value lookup for solubility (mole fraction); key = O=C(O)c1cc([N+](=O)[O-])ccc1O
Result: 0.0479

----------
# condition_notes: in n-propanol, 318.15 K
quantity_name: solubility (mole fraction)
Give bare numbers.

Q: Need solubility (mole fraction), item O=C(O)c1cc([N+](=O)[O-])ccc1O
Result: 0.0597

----------
# condition_notes: in isobutanol, 288.15 K
quantity_name: solubility (mole fraction)
Answers are plain numbers.

Q: Requested field: solubility (mole fraction). Item: O=C(O)c1cc([N+](=O)[O-])ccc1O
Result: 0.0179

----------
# condition_notes: in DMF, 318.15 K
quantity_name: solubility (mole fraction)
Answers are plain numbers.

Q: // returns reported solubility (mole fraction) for input O=C(O)c1cc([N+](=O)[O-])ccc1O
Result: 0.181

----------
# condition_notes: in n-propanol, 323.15 K
quantity_name: solubility (mole fraction)
Numbers only.

Q: # get_value(readout='solubility (mole fraction)', item= O=C(O)c1cc([N+](=O)[O-])ccc1O )
Result: 0.0656

----------
# condition_notes: in ethyl acetate, 303.15 K
quantity_name: solubility (mole fraction)

Q: // lookup solubility (mole fraction) for O=C(O)c1cc([N+](=O)[O-])ccc1O
Result: 0.0404

----------
# condition_notes: in isopropanol, 313.15 K
quantity_name: solubility (mole fraction)
Numbers only.

Q: Please report the recorded solubility (mole fraction) for O=C(O)c1cc([N+](=O)[O-])ccc1O .
Result: 0.0575

----------
# condition_notes: in NMP, 303.15 K
quantity_name: solubility (mole fraction)
One number for each entry.

Q: Using the record for O=C(O)c1cc([N+](=O)[O-])ccc1O , report its solubility (mole fraction).
Result: 0.156

----------
# condition_notes: in ethanol, 298.15 K
quantity_name: solubility (mole fraction)

Q: Look up solubility (mole fraction): O=C(O)c1cc([N+](=O)[O-])ccc1O
Result: 0.0429

----------
# condition_notes: in n-propanol, 278.15 K
quantity_name: solubility (mole fraction)
One number for each entry.

Q: If you can, please state the reported solubility (mole fraction) value of O=C(O)c1cc([N+](=O)[O-])ccc1O .
Result: 0.0232
